# System: P. falciparum strain W2
# run_description: labeled hypoxanthine susceptibility assay, P. falciparum W2
# Type: cell-based, Plasmodium falciparum
# condition_parameters: Plasmodium falciparum, W2, read-out: IC90 Pf W2
assay_metric: IC90

>>> df
                                   compound     result
0  OC(CNCC12CCC(C1)NC2)c1cc(C(F)(F)F)nc2c(C(F)(F)F)cccc12 (stereo not drawn) [WR319535/581]  275 ng/mL
1  CC1C(NCC(O)c2cc(C(F)(F)F)nc3c(C(F)(F)F)cccc23)CC2CC1C2(C)C (stereo not drawn) [WR308446]  < 1 ng/mL
2  C=CCNCC(O)c1cc(C(F)(F)F)nc2c(C(F)(F)F)cccc12 (stereo not drawn) [WR308255]  3.8 ng/mL
3  CCC(C)CNCC(O)c1cc(C(F)(F)F)nc2c(C(F)(F)F)cccc12 (stereo not drawn) [WR308387]  1.2 ng/mL
4  CCCCNCC(O)c1cc(C(F)(F)F)nc2c(C(F)(F)F)cccc12 (racemic) [WR177000]  1.7 ng/mL

## Task I have this compound here, CCC(CC)CNCC(O)c1cc(C(F)(F)F)nc2c(C(F)(F)F)cccc12 (stereo not drawn) [WR308388] , and I need its recorded IC90.
## Result 1.1 ng/mL

* * *

Below, each entry is listed alongside its reported IC90.
# System: P. falciparum strain TM91C235
# run_description: labeled hypoxanthine susceptibility assay, P. falciparum TM91C235
# Format: cell-based, Plasmodium falciparum
# condition_parameters: Plasmodium falciparum, read-out: IC90 Pf C235
Please give a number only; it is taken to be in µg/mL.

                                   compound               target_or_system  assay_metric  quantitative_result
0  CCCCNCC(O)c1cc(C(F)(F)F)nc2c(C(F)(F)F)cccc12 (racemic) [WR177000]  P. falciparum strain TM91C235          IC90               0.0089
1  OC(CNCCNCc1ccccc1)c1cc(C(F)(F)F)nc2c(C(F)(F)F)cccc12 (stereo not drawn) [WR308396]  P. falciparum strain TM91C235          IC90                 0.04

Attention now shifts to the item below.
## Task I have this compound here, CSCCCNCC(O)c1cc(C(F)(F)F)nc2c(C(F)(F)F)cccc12 (stereo not drawn) [WR308278] , and I need its recorded IC90.
## Result 0.039

* * *

# Tested on: P. falciparum strain TM90C2A
# run_description: labeled hypoxanthine susceptibility assay, P. falciparum TM90C2A
# Format: cell-based, Plasmodium falciparum
# condition_parameters: ratio of IC90 C2A to IC90 W2
assay_metric: CSI (C2A/W2)
The reply should be a number, written without any unit.

Answered examples (5):
                                   compound              target_or_system  quantitative_result
0  CC(C)N(CC(O)c1cc(C(F)(F)F)nc2c(C(F)(F)F)cccc12)C(C)C (racemic) [compound 308277]  P. falciparum strain TM90C2A                  6.7
1  CC(C)NCC(O)c1cc(C(F)(F)F)nc2c(C(F)(F)F)cccc12 (stereo not shown) [WR308257]  P. falciparum strain TM90C2A                  8.4
2  OC(CNC1CCCCC1)c1cc(C(F)(F)F)nc2c(C(F)(F)F)cccc12 (racemic) [compound 308248]  P. falciparum strain TM90C2A                 10.8
3  CCCCN(CCC#N)CC(O)c1cc(C(F)(F)F)nc2c(C(F)(F)F)cccc12 (racemic) [compound 308485]  P. falciparum strain TM90C2A                  9.5
4  OC(CN1CCCC1)c1cc(C(F)(F)F)nc2c(C(F)(F)F)cccc12 (racemic) [compound 308268]  P. falciparum strain TM90C2A                  7.7

## Task I have this compound here, CCCCNCC(O)c1cc(C(F)(F)F)nc2c(C(F)(F)F)cccc12 (racemic) [compound 177000] , and I need its recorded CSI (C2A/W2).
## Result 7.3

## Task I have this compound here, CCC(C)CNCC(O)c1cc(C(F)(F)F)nc2c(C(F)(F)F)cccc12 (stereo not shown) [WR308387] , and I need its recorded CSI (C2A/W2).
## Result 9.2

* * *

Below, each entry is listed alongside its reported IC50.
# target_or_system: UniProt:P33261
# Sequence (P33261 whole entry): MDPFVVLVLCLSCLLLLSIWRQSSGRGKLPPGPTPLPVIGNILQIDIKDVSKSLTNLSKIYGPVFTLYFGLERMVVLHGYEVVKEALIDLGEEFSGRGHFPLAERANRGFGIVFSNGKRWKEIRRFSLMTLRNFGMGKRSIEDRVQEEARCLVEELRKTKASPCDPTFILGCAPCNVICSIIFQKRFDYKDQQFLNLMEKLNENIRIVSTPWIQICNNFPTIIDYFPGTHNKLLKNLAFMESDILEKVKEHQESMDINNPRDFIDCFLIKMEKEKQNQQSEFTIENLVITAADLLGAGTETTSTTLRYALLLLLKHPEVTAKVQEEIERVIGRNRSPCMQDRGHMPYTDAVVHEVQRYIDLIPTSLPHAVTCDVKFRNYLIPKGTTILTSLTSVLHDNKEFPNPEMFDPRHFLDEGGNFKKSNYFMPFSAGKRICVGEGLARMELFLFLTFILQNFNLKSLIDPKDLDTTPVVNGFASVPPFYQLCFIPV
# run_description: CYP450 inhibition kit (drug-drug interaction), 2C19
State the value with its unit after it.

                                   compound  result
0  CNCC(O)c1cc(C(F)(F)F)nc2c(C(F)(F)F)cccc12 (centres unmarked) [WR308245]   33 µM
1  OC(CNC1CCC1)c1cc(C(F)(F)F)nc2c(C(F)(F)F)cccc12 (centres unmarked) [WR308266]  7.6 µM
2  C=CCNCC(O)c1cc(C(F)(F)F)nc2c(C(F)(F)F)cccc12 (centres unmarked) [WR308255]   25 µM
3  OC(CNCCNCc1ccccc1)c1cc(C(F)(F)F)nc2c(C(F)(F)F)cccc12 (centres unmarked) [WR308396]  5.8 µM

## Task I have this compound here, CSCCCNCC(O)c1cc(C(F)(F)F)nc2c(C(F)(F)F)cccc12 (centres unmarked) [WR308278] , and I need its recorded IC50.
## Result 3.6 µM

* * *

# run_description: metabolic stability in mouse liver microsomes
# Assay type: in vitro ADME
# condition_parameters: pH 7.4; mouse liver microsomes, 1 μM; read-out: Half-life in mouse micro
assay_metric: half-life at 1 μM (min)
Please give a number only; it is taken to be in min.

Answered examples (5):
>>> print(df.to_string())
                                   compound       assay_metric  quantitative_result
0  CCC(C)CNCC(O)c1cc(C(F)(F)F)nc2c(C(F)(F)F)cccc12 (stereo not shown)  half-life at 1 μM                   20
1  CC1C(NCC(O)c2cc(C(F)(F)F)nc3c(C(F)(F)F)cccc23)CC2CC1C2(C)C (stereo not shown)  half-life at 1 μM                   13
2  CSCCCNCC(O)c1cc(C(F)(F)F)nc2c(C(F)(F)F)cccc12 (stereo not shown)  half-life at 1 μM                   10
3  CCC(CC)CNCC(O)c1cc(C(F)(F)F)nc2c(C(F)(F)F)cccc12 (stereo not shown)  half-life at 1 μM                   16
4  C=CCNCC(O)c1cc(C(F)(F)F)nc2c(C(F)(F)F)cccc12 (stereo not shown)  half-life at 1 μM                   25

## Task I have this compound here, CC(C)CC(C)NCC(O)c1cc(C(F)(F)F)nc2c(C(F)(F)F)cccc12 (stereo not shown) , and I need its recorded half-life at 1 μM.
## Result 19

## Task I have this compound here, OC(CNC1CCC1)c1cc(C(F)(F)F)nc2c(C(F)(F)F)cccc12 (stereo not shown) , and I need its recorded half-life at 1 μM.
## Result 22

* * *

# System: P. falciparum strain TM90C2A
# run_description: labeled hypoxanthine susceptibility assay, P. falciparum TM90C2A
# Assay type: cell-based, Plasmodium falciparum
# condition_parameters: Plasmodium falciparum, TM90C2A; read-out: IC90 PfC2A
assay_metric: IC90 (µM)
Please give a number only; it is taken to be in µM.

>>> print(df.to_string())
                                   compound              target_or_system  readout_unit  quantitative_result
0  CCCCN(CCC#N)CC(O)c1cc(C(F)(F)F)nc2c(C(F)(F)F)cccc12 (racemic)  P. falciparum strain TM90C2A            µM                0.204
1  CC(C)CC(C)NCC(O)c1cc(C(F)(F)F)nc2c(C(F)(F)F)cccc12 (centres unmarked)  P. falciparum strain TM90C2A            µM                0.171
2  CCCCN(CCCC)CC(O)c1cc(C(F)(F)F)nc2c(C(F)(F)F)cccc12 (racemic)  P. falciparum strain TM90C2A            µM                0.044
3  CCCNCC(O)c1cc(C(F)(F)F)nc2c(C(F)(F)F)cccc12 (racemic)  P. falciparum strain TM90C2A            µM                 0.04
4  CCC(CC)CNCC(O)c1cc(C(F)(F)F)nc2c(C(F)(F)F)cccc12 (centres unmarked)  P. falciparum strain TM90C2A            µM                0.023
5  Cc1ccc(CNCC(O)c2cc(C(F)(F)F)nc3c(C(F)(F)F)cccc23)cc1 (racemic)  P. falciparum strain TM90C2A            µM                0.103

## Task I have this compound here, N#CCCN(CC(O)c1cc(C(F)(F)F)nc2c(C(F)(F)F)cccc12)C1CCCCC1 (racemic) , and I need its recorded IC90.
## Result 0.144

## Task I have this compound here, OC(CNc1nc2ccccc2[nH]1)c1cc(C(F)(F)F)nc2c(C(F)(F)F)cccc12 (racemic) , and I need its recorded IC90.
## Result 0.19

## Task I have this compound here, CC1CCN(CC(C)(C)NCC(O)c2cc(C(F)(F)F)nc3c(C(F)(F)F)cccc23)CC1 (racemic) , and I need its recorded IC90.
## Result 0.137

## Task I have this compound here, CCN(CC)CC(O)c1cc(C(F)(F)F)nc2c(C(F)(F)F)cccc12 (racemic) , and I need its recorded IC90.
## Result 0.176

## Task I have this compound here, CCCCNCC(O)c1cc(C(F)(F)F)nc2c(C(F)(F)F)cccc12 (racemic) , and I need its recorded IC90.
## Result 0.032

## Task I have this compound here, CC1C(NCC(O)c2cc(C(F)(F)F)nc3c(C(F)(F)F)cccc23)CC2CC1C2(C)C (centres unmarked) , and I need its recorded IC90.
## Result 0.034
